# Tgt: RXRα (Homo sapiens)
# Sequence (P19793 1-462): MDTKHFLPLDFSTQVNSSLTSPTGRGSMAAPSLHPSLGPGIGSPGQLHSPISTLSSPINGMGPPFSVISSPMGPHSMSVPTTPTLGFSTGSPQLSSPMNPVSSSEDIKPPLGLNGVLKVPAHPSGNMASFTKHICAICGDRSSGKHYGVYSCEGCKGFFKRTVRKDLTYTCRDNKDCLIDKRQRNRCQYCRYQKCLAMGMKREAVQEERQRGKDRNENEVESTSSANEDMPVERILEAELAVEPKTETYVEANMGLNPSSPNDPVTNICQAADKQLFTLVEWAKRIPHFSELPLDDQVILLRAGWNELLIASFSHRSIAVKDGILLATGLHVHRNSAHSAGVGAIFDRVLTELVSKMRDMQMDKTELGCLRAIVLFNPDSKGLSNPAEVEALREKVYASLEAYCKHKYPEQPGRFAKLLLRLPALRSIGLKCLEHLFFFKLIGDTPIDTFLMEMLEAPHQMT
# Measurement Protocol: ligand binding assay, RXRα
# Test Parameters: last entry of cell, read-out: RXR Bind Ki (nM) α
Labelling: Ki reported below 7 nM becomes Satisfied; at or above becomes Not satisfied.

Bench note: check whether `CC(/C=C/[C@@H]1C[C@]1(C)c1cc(CC(C)(C)C)c2c(c1)C(C)(C)CO2)=C\C(=O)O` shows Ki below 7 nM
Satisfied

Bench note: check whether `CCc1cc([C@@]2(C)C[C@H]2/C=C/C(C)=C/C(=O)O)cc2c1OCC2(C)C` shows Ki below 7 nM
Satisfied

Bench note: check whether `CC(/C=C/[C@@H]1C[C@@H]1c1ccc2c(c1)C(C)(C)CO2)=C\C(=O)O` shows Ki below 7 nM
Not satisfied

Bench note: check whether `CC(/C=C/[C@@H]1C[C@]1(C)c1cc(-c2c(C)cccc2C)c2c(c1)C(C)(C)CO2)=C\C(=O)O` shows Ki below 7 nM
Satisfied

Bench note: check whether CCCCC(O)CCc1cc([C@@]2(C)C[C@H]2/C=C/C(C)=C/C(=O)O)cc2c1OCC2(C)C (stereo partly shown) shows Ki below 7 nM
Not satisfied

Bench note: check whether `CC(/C=C/[C@@H]1C[C@]1(C)c1cc(-c2ccc(C(C)(C)C)cc2)c2c(c1)C(C)(C)CO2)=C\C(=O)O` shows Ki below 7 nM
Not satisfied

----------
# Tgt: RXRγ (UniProt P28705)
# Measurement Protocol: receptor transactivation assay, RXRγ
# Format: cell-based
# Set-up: RXR Trans; other: RXRγ; first entry of cell
# Test Parameters: parenthesised number, not defined in the patent
Measurement Label: RXR Trans. γ, number in parentheses after EC50

Compound: CC(/C=C/[C@@H]1C[C@]1(C)c1cc(C(C)C)c2c(c1)C(C)(C)CO2)=C\C(=O)O
Tgt: RXRγ (UniProt P28705)
Observed Value: 108

Compound: CC(/C=C/[C@@H]1C[C@]1(C)c1cc(C(C)(C)C)c2c(c1)C(C)(C)CO2)=C\C(=O)O
Tgt: RXRγ (UniProt P28705)
Observed Value: 95

Compound: CCCCC(O)CCc1cc([C@@]2(C)C[C@H]2/C=C/C(C)=C/C(=O)O)cc2c1OCC2(C)C (stereo partly shown)
Tgt: RXRγ (UniProt P28705)
Observed Value: 142

Note: attention shifts to another entry.
Assign RXR Trans. γ, number in parentheses after EC50 to the following record: `CC(/C=C/[C@@H]1C[C@]1(C)c1cc(-c2ccccc2)c2c(c1)C(C)(C)CO2)=C\C(=O)O`
110

----------
# Tgt: RARβ (Homo sapiens, UniProt P10826)
# Sequence (P10826 whole entry, species assumed): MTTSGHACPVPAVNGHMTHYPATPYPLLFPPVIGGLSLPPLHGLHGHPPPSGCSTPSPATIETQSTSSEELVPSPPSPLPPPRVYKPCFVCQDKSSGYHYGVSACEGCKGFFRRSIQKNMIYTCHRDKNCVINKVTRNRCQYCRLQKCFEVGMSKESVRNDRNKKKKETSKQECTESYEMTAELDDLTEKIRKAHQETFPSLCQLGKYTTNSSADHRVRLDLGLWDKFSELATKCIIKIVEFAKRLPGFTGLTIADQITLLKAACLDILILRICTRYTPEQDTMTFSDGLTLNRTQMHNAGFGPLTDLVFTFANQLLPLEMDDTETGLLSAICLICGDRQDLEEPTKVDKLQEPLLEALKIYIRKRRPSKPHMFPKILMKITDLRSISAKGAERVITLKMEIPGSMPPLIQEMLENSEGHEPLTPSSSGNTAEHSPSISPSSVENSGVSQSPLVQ
# Measurement Protocol: ligand binding assay, RARβ
# Test Parameters: second entry of cell, read-out: RAR Bind. Ki (nM) β
Measurement Label: Ki

Illustrative cases are given below, each with its answer.
Smiles Representation: CC(/C=C/[C@@H]1C[C@]1(C)c1cc(C(C)(C)C)c2c(c1)C(C)(C)CO2)=C\C(=O)O
Observed Value: 19000 nM
--
Smiles Representation: CCc1cc([C@@]2(C)C[C@H]2/C=C/C(C)=C/C(=O)O)cc2c1OCC2(C)C
Observed Value: > 30000 nM
--
Smiles Representation: CC(/C=C/[C@@H]1C[C@]1(C)c1cc(Cc2ccccc2)c2c(c1)C(C)(C)CO2)=C\C(=O)O
Observed Value: 4770 nM
--
Smiles Representation: CCCCCCc1cc([C@@]2(C)C[C@H]2/C=C/C(C)=C/C(=O)O)cc2c1OCC2(C)C
Observed Value: 15000 nM
--
Smiles Representation: CC(/C=C/[C@@H]1C[C@]1(C)c1cc(-c2ccccc2C)c2c(c1)C(C)(C)CO2)=C\C(=O)O
Observed Value: > 10000 nM
--
Smiles Representation: CC(/C=C/[C@@H]1C[C@]1(C)c1cc(-c2c(C)cccc2C)c2c(c1)C(C)(C)CO2)=C\C(=O)O
Observed Value: > 10000 nM

Note: attention shifts to another entry.
Assign Ki to the following record: `CC(/C=C/[C@@H]1C[C@@H]1c1ccc2c(c1)C(C)(C)CO2)=C\C(=O)O`
> 10000 nM

----------
# Tgt: RARα (Homo sapiens, UniProt P10276)
# Sequence (P10276 whole entry, species assumed): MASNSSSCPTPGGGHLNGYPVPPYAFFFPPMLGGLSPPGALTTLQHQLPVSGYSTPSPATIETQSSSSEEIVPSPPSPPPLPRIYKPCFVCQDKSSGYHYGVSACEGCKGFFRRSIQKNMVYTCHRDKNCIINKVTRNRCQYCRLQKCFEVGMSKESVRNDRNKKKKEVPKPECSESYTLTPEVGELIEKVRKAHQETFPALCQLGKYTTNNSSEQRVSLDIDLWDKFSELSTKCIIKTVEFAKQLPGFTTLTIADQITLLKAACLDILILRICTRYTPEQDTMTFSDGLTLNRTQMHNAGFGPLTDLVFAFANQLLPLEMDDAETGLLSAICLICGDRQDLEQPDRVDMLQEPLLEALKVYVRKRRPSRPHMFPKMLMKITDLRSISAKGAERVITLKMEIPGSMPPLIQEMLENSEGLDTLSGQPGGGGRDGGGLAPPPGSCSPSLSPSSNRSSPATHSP
# Measurement Protocol: ligand binding assay, RARα
# Test Parameters: second entry of cell, read-out: RAR Bind. Ki (nM) α
Measurement Label: Ki

Compound: CC(/C=C/[C@@H]1C[C@]1(C)c1cc(Cc2ccccc2)c2c(c1)C(C)(C)CO2)=C\C(=O)O [Compound 14]
Ki: 8720 nM

Compound: CC(/C=C/[C@@H]1C[C@]1(C)c1cc(-c2ccc(C(C)(C)C)cc2)c2c(c1)C(C)(C)CO2)=C\C(=O)O [Compound 30]
Ki: > 10000 nM

Compound: CCCCC(O)CCc1cc([C@@]2(C)C[C@H]2/C=C/C(C)=C/C(=O)O)cc2c1OCC2(C)C (stereo partly shown) [Compound 38]
Ki: > 10000 nM

Compound: CC(/C=C/[C@@H]1C[C@@H]1c1ccc2c(c1)C(C)(C)CO2)=C\C(=O)O [Compound 36]
Ki: > 10000 nM

Compound: CCCCC(=O)CCc1cc([C@@]2(C)C[C@H]2/C=C/C(C)=C/C(=O)O)cc2c1OCC2(C)C [Compound 40]
Ki: 11000 nM

Compound: CC(/C=C/[C@@H]1C[C@]1(C)c1cc(C)c2c(c1)C(C)(C)CO2)=C\C(=O)O [Compound 4]
Ki: > 10000 nM

Note: attention shifts to another entry.
Assign Ki to the following record: CC(/C=C/[C@@H]1C[C@]1(C)c1cc(CC2CCCCC2)c2c(c1)C(C)(C)CO2)=C\C(=O)O [Compound 16]
8800 nM

----------
# Tgt: RXRγ (UniProt P28705)
# Sequence (P28705 1-463): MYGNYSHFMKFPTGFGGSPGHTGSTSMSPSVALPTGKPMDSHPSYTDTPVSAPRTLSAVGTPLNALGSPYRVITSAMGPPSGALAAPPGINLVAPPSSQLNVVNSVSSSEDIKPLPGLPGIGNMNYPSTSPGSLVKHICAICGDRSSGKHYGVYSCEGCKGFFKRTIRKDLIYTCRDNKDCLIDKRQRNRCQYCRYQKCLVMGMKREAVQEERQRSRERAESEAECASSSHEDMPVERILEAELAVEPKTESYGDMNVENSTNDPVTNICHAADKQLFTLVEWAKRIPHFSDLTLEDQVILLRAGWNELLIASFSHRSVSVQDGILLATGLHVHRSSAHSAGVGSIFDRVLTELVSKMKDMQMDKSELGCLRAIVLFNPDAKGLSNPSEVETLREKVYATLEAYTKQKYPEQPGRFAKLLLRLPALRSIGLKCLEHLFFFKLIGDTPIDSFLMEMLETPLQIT
# Measurement Protocol: receptor transactivation assay, RXRγ
# Assay type: cell-based
# Design: RXR Trans; other: RXRγ; first entry of cell
# Test Parameters: first entry of cell, read-out: RXR Trans. EC50 (nM) γ
# Source text: A holoreceptor transactivation assay and a ligand binding assay which measure the antagonist/agonist like activity of the compounds of the invention, or their ability to bind to the several retinoid receptor subtypes, respectively, are described in published PCT Application No. WO WO93/11755 (particularly on pages 30-33 and 37-41) published on Jun. 24, 1993, the specification of which is also incorporated herein by reference. […]
Measurement Label: EC50 (nM)
Use nM as the unit, but write only the number.

Assign EC50 to the following record: `CC(/C=C/[C@@H]1C[C@]1(C)c1cc(Br)c2c(c1)C(C)(C)CO2)=C\C(=O)O`
3.4

Assign EC50 to the following record: `CC(/C=C/[C@@H]1C[C@]1(C)c1cc(-c2ccc(F)cc2)c2c(c1)C(C)(C)CO2)=C\C(=O)O`
0.56

----------
# Tgt: RXRβ (UniProt P28704)
# Sequence (P28704 1-520): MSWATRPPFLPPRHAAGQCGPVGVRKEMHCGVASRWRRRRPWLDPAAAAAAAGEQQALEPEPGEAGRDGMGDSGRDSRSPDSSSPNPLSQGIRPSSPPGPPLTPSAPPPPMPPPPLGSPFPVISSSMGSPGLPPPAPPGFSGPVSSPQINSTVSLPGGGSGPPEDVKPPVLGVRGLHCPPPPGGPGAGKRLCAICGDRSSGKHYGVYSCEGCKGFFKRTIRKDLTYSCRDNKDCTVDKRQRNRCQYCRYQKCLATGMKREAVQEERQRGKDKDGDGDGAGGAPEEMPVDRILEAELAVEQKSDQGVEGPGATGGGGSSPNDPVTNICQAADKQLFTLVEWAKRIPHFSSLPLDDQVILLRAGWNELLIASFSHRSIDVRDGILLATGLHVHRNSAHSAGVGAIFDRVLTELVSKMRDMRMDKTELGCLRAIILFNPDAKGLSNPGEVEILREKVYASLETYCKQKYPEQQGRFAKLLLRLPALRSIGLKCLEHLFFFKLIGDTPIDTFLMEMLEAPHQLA
# Measurement Protocol: receptor transactivation assay, RXRβ
# Format: cell-based
# Set-up: RXR Trans; other: RXRβ; first entry of cell
# Test Parameters: first entry of cell, read-out: RXR Trans. EC50 (nM) β
# maps each entry to its EC50
Use nM as the unit, but write only the number.

Compound: CC(/C=C/[C@@H]1C[C@]1(C)c1cc(C)c2c(c1)C(C)(C)CO2)=C\C(=O)O
Result Unit: nM
EC50: 21

Assign EC50 to the following record: `CC(/C=C/[C@@H]1C[C@]1(C)c1cc(CC(C)(C)C)c2c(c1)C(C)(C)CO2)=C\C(=O)O`
1.67

Assign EC50 to the following record: `CC(/C=C/[C@@H]1C[C@]1(C)c1cc(-c2ccccc2C)c2c(c1)C(C)(C)CO2)=C\C(=O)O`
0.65
